tested on: HeLa; assay: Anticancer activity against human HeLa cells assessed as inhibition of cell growth incubated for 48 hrs by MTT assay; format: functional, cell-based
Structures can show the parent of a compound that is named as a salt.
value kind: IC50 (µM)

1. CC(C)c1ccc2c(c1)CC[C@H]1[C@](C)(C(=O)OCc3cn(CC4CN(c5ccccc5F)C(=O)O4)nn3)CCC[C@]21C (some centres not stated)
2. CC(C)c1ccc2c(c1)CC[C@H]1[C@](C)(C(=O)OCc3cn(CC4CN(c5cccc([N+](=O)[O-])c5)C(=O)O4)nn3)CCC[C@]21C (some centres not stated)
Which value of IC50 is greater, the one for 1 or the one for 2 ? Answer format: the label of the selected item.
2

a. COc1cc(N2CC(Cn3cc(COC(=O)[C@]4(C)CCC[C@]5(C)c6ccc(C(C)C)cc6CC[C@@H]45)nn3)OC2=O)cc(OC)c1OC (some centres not stated)
b. CC(C)c1ccc2c(c1)CC[C@H]1[C@](C)(C(=O)OCc3cn(CC4CN(c5ccccc5)C(=O)O4)nn3)CCC[C@]21C (some centres not stated)
c. CC(C)c1ccc2c(c1)CC[C@H]1[C@](C)(C(=O)OCc3cn(CC4CN(c5ccc(F)c(F)c5)C(=O)O4)nn3)CCC[C@]21C (some centres not stated)
// ascending sort on recorded IC50 Provide the ranking by listing each label in its place in the requested order.
c, a, b
(c: 9.35 µM, a: 16.6 µM, b: 36.1 µM)

I. CC(C)c1ccc2c(c1)CC[C@H]1[C@](C)(C(=O)OCc3cn(CC4CN(c5cccc(F)c5)C(=O)O4)nn3)CCC[C@]21C (some centres not stated)
II. CC(C)c1ccc2c(c1)CC[C@H]1[C@](C)(C(=O)OCc3cn(CC4CN(c5ccccc5[N+](=O)[O-])C(=O)O4)nn3)CCC[C@]21C (some centres not stated)
III. CC(C)c1ccc2c(c1)CC[C@H]1[C@](C)(C(=O)OCc3cn(CC4CN(c5ccc(N6CCOCC6)cc5)C(=O)O4)nn3)CCC[C@]21C (some centres not stated)
IV. COc1cccc2c1C(=O)c1c(O)c3c(c(O)c1C2=O)C[C@@](O)(C(=O)CO)C[C@@H]3O[C@H]1C[C@H](N)[C@H](O)[C@H](C)O1 [DOXORUBICIN HYDROCHLORIDE]
V. COc1ccc(N2CC(Cn3cc(COC(=O)[C@]4(C)CCC[C@]5(C)c6ccc(C(C)C)cc6CC[C@@H]45)nn3)OC2=O)cc1 (some centres not stated)
Please list the entries, largest IC50 first. Provide the ranking by listing each label in its place in the requested order.
I, III, II, V, IV

I. CC(C)c1ccc2c(c1)CC[C@H]1[C@](C)(C(=O)OCc3cn(CC4CN(c5ccc(F)cc5)C(=O)O4)nn3)CCC[C@]21C (some centres not stated)
II. CC(C)c1ccc2c(c1)CC[C@H]1[C@](C)(C(=O)OCc3cn(CC4CN(c5ccccc5Br)C(=O)O4)nn3)CCC[C@]21C (some centres not stated)
III. Cc1ccc(N2CC(Cn3cc(COC(=O)[C@]4(C)CCC[C@]5(C)c6ccc(C(C)C)cc6CC[C@@H]45)nn3)OC2=O)cc1 (some centres not stated)
Please list the entries, largest IC50 first. Provide the ranking by listing each label in its place in the requested order.
I, II, III

I. CC(C)c1ccc2c(c1)CC[C@H]1[C@](C)(C(=O)O)CCC[C@]21C [DEHYDROABIETIC ACID]
II. CC(C)c1ccc2c(c1)CC[C@H]1[C@](C)(C(=O)OCc3cn(CC4CN(c5cccc(Cl)c5)C(=O)O4)nn3)CCC[C@]21C (some centres not stated)
III. Cc1cccc(N2CC(Cn3cc(COC(=O)[C@]4(C)CCC[C@]5(C)c6ccc(C(C)C)cc6CC[C@@H]45)nn3)OC2=O)c1 (some centres not stated)
IV. CC(C)c1ccc2c(c1)CC[C@H]1[C@](C)(C(=O)OCc3cn(CC4CN(c5cccc(Br)c5)C(=O)O4)nn3)CCC[C@]21C (some centres not stated)
// ascending sort on recorded IC50 Provide the ranking by listing each label in its place in the requested order.
II, IV, I, III
(II: 6.94 µM, IV: 20.5 µM, I: 30.4 µM, III: 59.5 µM)

A. CC(C)c1ccc2c(c1)CC[C@H]1[C@](C)(C(=O)OCc3cn(CC4CN(c5ccc(N6CCOCC6)c(F)c5)C(=O)O4)nn3)CCC[C@]21C (some centres not stated)
B. CC(C)c1ccc2c(c1)CC[C@H]1[C@](C)(C(=O)OCc3cn(CC4CN(c5ccc(Br)cc5)C(=O)O4)nn3)CCC[C@]21C (some centres not stated)
C. CC(C)c1ccc2c(c1)CC[C@H]1[C@](C)(C(=O)OCc3cn(CC4CN(c5ccccc5Cl)C(=O)O4)nn3)CCC[C@]21C (some centres not stated)
// ascending sort on recorded IC50 Provide the ranking by listing each label in its place in the requested order.
C, B, A

a. Cc1ccccc1N1CC(Cn2cc(COC(=O)[C@]3(C)CCC[C@]4(C)c5ccc(C(C)C)cc5CC[C@@H]34)nn2)OC1=O (some centres not stated)
b. CC(C)c1ccc2c(c1)CC[C@H]1[C@](C)(C(=O)OCc3cn(CC4CN(c5ccc(Cl)cc5)C(=O)O4)nn3)CCC[C@]21C (some centres not stated)
Select the item whose IC50 value is smaller, choosing between a and b . Answer format: the label of the selected item.
a

---

experiment: Cytotoxicity against human LO2 cells assessed as reduction in cell viability incubated for 48 hrs by MTT assay; type: toxicity, cell-based, L02
value kind: IC50 at 48 h (µM)
Form entry: value (µM) — number only.

Cc1cccc(N2CC(Cn3cc(COC(=O)[C@]4(C)CCC[C@]5(C)c6ccc(C(C)C)cc6CC[C@@H]45)nn3)OC2=O)c1 (some centres not stated)	51.5

Give its IC50 at 48 h value. Item: CC(C)c1ccc2c(c1)CC[C@H]1[C@](C)(C(=O)OCc3cn(CC4CN(c5cccc(Br)c5)C(=O)O4)nn3)CCC[C@]21C (some centres not stated)
47.6

Now consider CC(C)c1ccc2c(c1)CC[C@H]1[C@](C)(C(=O)OCc3cn(CC4CN(c5ccc(Cl)cc5)C(=O)O4)nn3)CCC[C@]21C (some centres not stated) and answer again.
24.3

Now consider Cc1ccccc1N1CC(Cn2cc(COC(=O)[C@]3(C)CCC[C@]4(C)c5ccc(C(C)C)cc5CC[C@@H]34)nn2)OC1=O (some centres not stated) and answer again.
67.3

Now consider CC(C)c1ccc2c(c1)CC[C@H]1[C@](C)(C(=O)OCc3cn(CC4CN(c5ccccc5F)C(=O)O4)nn3)CCC[C@]21C (some centres not stated) and answer again.
48.2

Now consider CC(C)c1ccc2c(c1)CC[C@H]1[C@](C)(C(=O)OCc3cn(CC4CN(c5cccc([N+](=O)[O-])c5)C(=O)O4)nn3)CCC[C@]21C (some centres not stated) and answer again.
25.9

Now consider CC(C)c1ccc2c(c1)CC[C@H]1[C@](C)(C(=O)OCc3cn(CC4CN(c5ccccc5[N+](=O)[O-])C(=O)O4)nn3)CCC[C@]21C (some centres not stated) and answer again.
76.4

---

system: HepG2; test: Anticancer activity against human HepG2 cells assessed as inhibition of cell growth incubated for 48 hrs by MTT assay; type: functional, cell-based; details: HepG2, 48 h
pIC50: −log10 of the molar value. Where a name gives a salt, the structure may show the parent alone.
value kind: pIC50

CC(C)c1ccc2c(c1)CC[C@H]1[C@](C)(C(=O)OCc3cn(CC4CN(c5ccc(N6CCOCC6)cc5)C(=O)O4)nn3)CCC[C@]21C (stereo partly drawn)	4.62

P. Cc1ccccc1N1CC(Cn2cc(COC(=O)[C@]3(C)CCC[C@]4(C)c5ccc(C(C)C)cc5CC[C@@H]34)nn2)OC1=O (stereo partly drawn)
Q. COc1cc(N2CC(Cn3cc(COC(=O)[C@]4(C)CCC[C@]5(C)c6ccc(C(C)C)cc6CC[C@@H]45)nn3)OC2=O)cc(OC)c1OC (stereo partly drawn)
R. COc1cccc2c1C(=O)c1c(O)c3c(c(O)c1C2=O)C[C@@](O)(C(=O)CO)C[C@@H]3O[C@H]1C[C@H](N)[C@H](O)[C@H](C)O1 [DOXORUBICIN HYDROCHLORIDE]
S. CC(C)c1ccc2c(c1)CC[C@H]1[C@](C)(C(=O)OCc3cn(CC4CN(c5ccccc5Br)C(=O)O4)nn3)CCC[C@]21C (stereo partly drawn)
// ascending sort on recorded pIC50 Provide the ranking by listing each label in its place in the requested order.
S, Q, P, R
(S: 4.17, Q: 4.49, P: 4.81, R: 5.46)

I. CC(C)c1ccc2c(c1)CC[C@H]1[C@](C)(C(=O)OCc3cn(CC4CN(c5cccc(Br)c5)C(=O)O4)nn3)CCC[C@]21C (stereo partly drawn)
II. CC(C)c1ccc2c(c1)CC[C@H]1[C@](C)(C(=O)OCc3cn(CC4CN(c5ccccc5F)C(=O)O4)nn3)CCC[C@]21C (stereo partly drawn)
Select the item whose pIC50 value is smaller, choosing between I and II . Answer format: the label of the selected item.
II

A. CC(C)c1ccc2c(c1)CC[C@H]1[C@](C)(C(=O)OCc3cn(CC4CN(c5ccc(F)cc5)C(=O)O4)nn3)CCC[C@]21C (stereo partly drawn)
B. CC(C)c1ccc2c(c1)CC[C@H]1[C@](C)(C(=O)OCc3cn(CC4CN(c5ccccc5Cl)C(=O)O4)nn3)CCC[C@]21C (stereo partly drawn)
C. Cc1ccc(N2CC(Cn3cc(COC(=O)[C@]4(C)CCC[C@]5(C)c6ccc(C(C)C)cc6CC[C@@H]45)nn3)OC2=O)cc1 (stereo partly drawn)
Please list the entries, largest pIC50 first. Provide the ranking by listing each label in its place in the requested order.
B, C, A
(B: 4.87, C: 4.57, A: 4.34)
